Kindly state pKi for each of the entries shown.
- test.system: Adenosine receptor A3 (Homo sapiens, UniProt P0DMS8)
- Sequence (P0DMS8 whole entry): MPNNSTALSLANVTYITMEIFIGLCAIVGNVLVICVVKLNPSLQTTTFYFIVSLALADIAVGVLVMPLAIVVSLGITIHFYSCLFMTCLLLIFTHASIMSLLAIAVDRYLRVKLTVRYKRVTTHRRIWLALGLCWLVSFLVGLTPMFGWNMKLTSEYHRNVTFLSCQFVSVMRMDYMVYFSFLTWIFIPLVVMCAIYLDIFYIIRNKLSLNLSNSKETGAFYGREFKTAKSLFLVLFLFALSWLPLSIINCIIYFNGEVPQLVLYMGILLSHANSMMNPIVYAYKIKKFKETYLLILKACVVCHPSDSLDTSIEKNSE
- test: Displacement of [3H]PSB-11 from human adenosine A3 receptor expressed in CHO cells
- Type: cell-based
pKi: −log10 of the molar value.

For each listed entry, give its pKi.
1. CCn1c(=O)c2c(nc3n2CCCN3CCc2cccc(OC)c2)n(CC)c1=O
2. C#CCn1c(=O)c2c(nc3n2CCCN3c2ccc(F)cc2)n(C)c1=O

Result:
5.47
< 5.00

For each listed entry, give its pKi.
1. C#CCn1c(=O)c2c(nc3n2CCCN3CCc2ccccc2)n(C)c1=O
2. CCn1c(=O)c2c(nc3n2CCCN3CCc2ccc(OC)cc2)n(CC)c1=O
3. C#CCn1c(=O)c2c(nc3n2CCCN3CC2CCCCC2)n(C)c1=O
4. CCCn1c(=O)c2c(nc3n2CCCN3CC(=O)N2CCN(Cc3ccccc3)CC2)n(CCC)c1=O
5. Cn1c(=O)c2c(nc3n2CCCN3CC(=O)N2CCN(Cc3ccc(Cl)cc3)CC2)n(C)c1=O
6. Cn1c(=O)c2c(nc3n2CCCN3CC(=O)N2CCN(c3ccc(Cl)cc3)CC2)n(C)c1=O

Result:
< 6.00
5.20
< 7.00
< 6.00
< 5.00
< 6.00

For each listed entry, give its pKi.
1. C#CCn1c(=O)c2c(nc3n2CCCN3Cc2ccccc2OC)n(C)c1=O
2. C#CCn1c(=O)c2c(nc3n2CCCN3C2CCN(Cc3ccccc3)CC2)n(C)c1=O

Result:
1. 5.36
2. < 6.00

----------
Kindly state pKi for each of the entries shown.
- test.system: Adenosine receptor A2a (Homo sapiens, UniProt P29274)
- Sequence (P29274 whole entry): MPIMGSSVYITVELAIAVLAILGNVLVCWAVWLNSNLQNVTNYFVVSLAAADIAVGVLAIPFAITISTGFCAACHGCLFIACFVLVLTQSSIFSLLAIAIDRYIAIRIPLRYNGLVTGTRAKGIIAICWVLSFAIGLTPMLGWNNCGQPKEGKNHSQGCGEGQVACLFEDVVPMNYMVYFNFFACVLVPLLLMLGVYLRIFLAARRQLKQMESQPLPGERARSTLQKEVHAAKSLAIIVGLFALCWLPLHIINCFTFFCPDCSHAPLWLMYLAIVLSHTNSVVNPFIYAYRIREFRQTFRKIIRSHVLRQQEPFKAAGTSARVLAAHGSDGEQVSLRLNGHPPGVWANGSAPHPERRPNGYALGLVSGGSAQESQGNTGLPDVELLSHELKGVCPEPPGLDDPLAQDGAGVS
- test: Displacement of [3H]MSX-2 from human adenosine A2A receptor expressed in CHO cells
- Type: cell-based
Give bare numbers, as −log10 of the molar value.

Some solved entries appear below for comparison.
Cn1c(=O)c2c(nc3n2CCCN3CCc2cccc(Cl)c2)n(C)c1=O: 5.87
C#CCn1c(=O)c2c(nc3n2CCCN3CC2CCCO2)n(C)c1=O (centres undefined): 5.95
C#CCn1c(=O)c2c(nc3n2CCCN3CCc2ccc(O)cc2)n(C)c1=O: 6.46
Cn1c(=O)c2c(nc3n2CCCN3c2ccc(F)cc2)n(C)c1=O: 5.93
Cn1c(=O)c2c(nc3n2CCCN3c2cc(Cl)cc(Cl)c2)n(C)c1=O: 5.34
C#CCn1c(=O)c2c(nc3n2CCCN3C2CCN(Cc3ccccc3)CC2)n(C)c1=O: 6.20

For each listed entry, give its pKi.
1. C#CCn1c(=O)c2c(nc3n2CCCN3CC2CCCCC2)n(C)c1=O
2. C#CCn1c(=O)c2c(nc3n2CCCN3C2CCCCC2)n(C)c1=O
3. C#CCn1c(=O)c2c(nc3n2CCCN3CCc2ccc(OC)cc2)n(C)c1=O
4. C#CCn1c(=O)c2c(nc3n2CCCN3Cc2ccccc2)n(C)c1=O
5. Cn1c(=O)c2c(nc3n2CCCN3Cc2cc(Cl)cc(Cl)c2)n(C)c1=O
6. C#CCn1c(=O)c2c(nc3n2CCCN3CCc2ccccc2)n(C)c1=O
7. C#CCn1c(=O)c2c(nc3n2CCCN3Cc2cccc(OC)c2)n(C)c1=O

Result:
6.29
6.51
6.29
6.60
5.42
5.92
6.49

For each listed entry, give its pKi.
1. CCn1c(=O)c2c(nc3n2CCCN3CCc2ccc(OC)cc2)n(CC)c1=O
2. C#CCn1c(=O)c2c(nc3n2CCCN3c2ccc(F)cc2)n(C)c1=O
3. C#CCn1c(=O)c2c(nc3n2CCCN3Cc2cccs2)n(C)c1=O
4. Cn1c(=O)c2c(nc3n2CCCN3CCc2ccc(Cl)c(Cl)c2)n(C)c1=O
5. C#CCn1c(=O)c2c(nc(/C=C/c3cccc(OC)c3)n2C)n(CCCO)c1=O
6. C#CCn1c(=O)c2c(nc3n2CCCN3CCc2cccs2)n(C)c1=O
7. C#CCn1c(=O)c2c(nc3n2CCCN3C2CCC2)n(C)c1=O
8. C#CCn1c(=O)c2c(nc3n2CCCN3c2cccc(Br)c2)n(C)c1=O

Result:
5.60
5.67
6.20
5.28
8.27
6.50
6.64
6.55

For each listed entry, give its pKi.
1. Cn1c(=O)c2c(nc3n2CCCN3CCc2ccc(Cl)cc2)n(C)c1=O
2. C#CCn1c(=O)c2c(nc3n2CCCN3Cc2ccccc2OC)n(C)c1=O
3. Cn1c(=O)c2c(nc3n2CCCN3Cc2cccc(Cl)c2)n(C)c1=O

Result:
5.25
6.38
5.69
